- experiment_notes: drug combination growth inhibition, ovarian cancer – cell-based, oncology-focused library, rucaparib conditional, profiling panel (AID 1508598)
- condition_parameters: patient-derived ovarian cancer cells, CellTiter-Glo viability, 144 h; at 1.25 µM; OCI-P5x cells; with rucaparib 20 µM; hits give low values; 100% = cells with rucaparib alone
viability overview
// units = %; emit number, no label

| smiles_input | viability, % |
| --- | --- |
| Cc1cnc(Nc2ccc(OCCN3CCCC3)cc2)nc1Nc1cccc(S(=O)(=O)NC(C)(C)C)c1 | 78 |
| Cn1cnc2c(F)c(Nc3ccc(Br)cc3Cl)c(C(=O)NOCCO)cc21 | 38.2 |
| C=CC(=O)Nc1cc(Nc2nccc(-c3cn(C)c4ccccc34)n2)c(OC)cc1N(C)CCN(C)C | 91.6 |

What does the data say about its viability? Entry: C=CC(=O)Nc1cccc(Oc2nc(Nc3ccc(N4CCN(C)CC4)cc3OC)ncc2Cl)c1
108

What does the data say about its viability? Entry: Cc1ccc(C(=O)N(CCCN)[C@@H](c2nc3cc(Cl)ccc3c(=O)n2Cc2ccccc2)C(C)C)cc1
56.9

What does the data say about its viability? Entry: CN(C)C/C=C/C(=O)Nc1cc2c(Nc3ccc(F)c(Cl)c3)ncnc2cc1O[C@H]1CCOC1
8.68

What does the data say about its viability? Entry: CN(c1ncccc1CNc1nc(Nc2ccc3c(c2)CC(=O)N3)ncc1C(F)(F)F)S(C)(=O)=O
76.7

What does the data say about its viability? Entry: COCCOc1nc(-c2ccc(Cl)c(Cl)c2)n(-c2ccc(NC(=O)CCl)cc2)n1
86.3

What does the data say about its viability? Entry: O=C(NOC[C@H](O)CO)c1ccc(F)c(F)c1Nc1ccc(I)cc1F
40.4

What does the data say about its viability? Entry: CC(C)n1nc(-c2ccc3oc(N)nc3c2)c2c(N)ncnc21
29

What does the data say about its viability? Entry: CC(=O)Nc1nc(C)c(-c2ccc(Cl)c(S(=O)(=O)NCCO)c2)s1
92.7

Origin of measurements: PubChem BioAssay
